compounds and their reported Ki
target: recombinant BRD4 BD2 (Homo sapiens); construct: for recombinant BRD4 BD1 and BRD4 BD2 proteins; test: Competitive fluorescence-polarization (FP) binding assay, BRD4 BD2; conditions: FP competitive binding, BRD4 BD2; read-out: Binding affinities (FP) BRD4BD2 Ki
Write the value in nM as a bare number.

{"Compound": "COc1nc2c(cc1-c1c(C)noc1C)[nH]c1nc(C)nc(N(C)c3cc(C(C)(C)C)nn3C)c12 [compound 315]", "Assay system": "recombinant BRD4 BD2 (Homo sapiens)", "U": "nM", "Ki": 4.7}
{"Compound": "COc1nc2c(cc1-c1c(C)noc1C)[nH]c1nc(C)nc(N(C)c3cc(C)nn3C(C)(C)C)c12 [compound 316]", "Assay system": "recombinant BRD4 BD2 (Homo sapiens)", "U": "nM", "Ki": 106}
{"Compound": "COc1nc2c(cc1-c1c(C)noc1C)[nH]c1nc(C)nc(N(C)c3c(C)cnn3C(C)C)c12 [compound 319]", "Assay system": "recombinant BRD4 BD2 (Homo sapiens)", "U": "nM", "Ki": 27}
{"Compound": "COc1nc2c(cc1-c1c(C)noc1C)[nH]c1nc(C)nc(Nc3c(C)cnn3C(C)C)c12 [compound 312]", "Assay system": "recombinant BRD4 BD2 (Homo sapiens)", "U": "nM", "Ki": 101}
{"Compound": "COc1nc2c(cc1-c1c(C)noc1C)[nH]c1nc(C)nc(N(C)C3CCCC3)c12 [compound 321]", "Assay system": "recombinant BRD4 BD2 (Homo sapiens)", "U": "nM", "Ki": 239}

Would you kindly look at the next entry?
### Prompt Looking for the measured Ki of COc1nc2c(cc1-c1c(C)noc1C)[nH]c1nc(C)nc(N(C)c3cc(C4CC4)nn3C)c12 [compound 320] , can you help?
### Response 1.3
